// provenance: patent US10968169B2

A short record of pIC50 observed with tryptophanase of Bacteroides thetaiotamicron (Bacteroides thetaiotaomicron) follows.
pIC50: −log10 of the molar value.
Reported property: pIC50

[
  {
    "Compound": "CC[C@@](C)(NC(=O)Nc1cccc(Cl)c1)C(=O)O [Example 26]",
    "Value reported": 4.88
  },
  {
    "Compound": "CCC(CC)(NC(=O)Nc1cccc(C#N)c1)C(=O)O [Compound F]",
    "Value reported": 4.78
  },
  {
    "Compound": "CC(C)CC(C)(NC(=O)Nc1ccc(OC(F)(F)F)cc1)C(=O)O (centres unmarked) [Example 3]",
    "Value reported": 5.06
  },
  {
    "Compound": "CC[C@@](C)(NC(=O)Nc1ccc(OC(F)(F)F)c(C#N)c1)C(=O)O [Example 19]",
    "Value reported": 4.45
  },
  {
    "Compound": "CCC(CC)(NC(=O)Nc1ccc(C(C)C#N)cc1)C(=O)O (centres unmarked) [Example 40]",
    "Value reported": 5.24
  }
]

====

target: UniProt Q8A7N2
pIC50: −log10 of the molar value.
y means recorded pIC50 is 5 or above; n means it is below 5.

[
  {
    "Compound": "CCC(CC)(NC(=O)Nc1ccc(Cl)c(C#N)c1)C(=O)O [Example 37]",
    "Target of assay": "UniProt Q8A7N2",
    "Category label": "n"
  },
  {
    "Compound": "O=C(Nc1ccccc1)NC(C(=O)O)(C1CC1)C1CC1 [Example 21]",
    "Target of assay": "UniProt Q8A7N2",
    "Category label": "y"
  },
  {
    "Compound": "CCC(NC(=O)Nc1ccc(OC(F)F)cc1)(C(=O)O)C1CC1 (centres unmarked) [Example 11]",
    "Target of assay": "UniProt Q8A7N2",
    "Category label": "y"
  },
  {
    "Compound": "CC[C@@](C)(NC(=O)Nc1ccc(Br)cc1)C(=O)O [Example 30]",
    "Target of assay": "UniProt Q8A7N2",
    "Category label": "n"
  },
  {
    "Compound": "CCC(CC)(NC(=O)Nc1cccc(F)c1)C(=O)O [Compound E]",
    "Target of assay": "UniProt Q8A7N2",
    "Category label": "n"
  }
]

====

molecular target: tryptophanase of Bacteroides thetaiotamicron (Bacteroides thetaiotaomicron, UniProt Q8A7N2)
Sequence (Q8A7N2 entry or part of it, change not shown): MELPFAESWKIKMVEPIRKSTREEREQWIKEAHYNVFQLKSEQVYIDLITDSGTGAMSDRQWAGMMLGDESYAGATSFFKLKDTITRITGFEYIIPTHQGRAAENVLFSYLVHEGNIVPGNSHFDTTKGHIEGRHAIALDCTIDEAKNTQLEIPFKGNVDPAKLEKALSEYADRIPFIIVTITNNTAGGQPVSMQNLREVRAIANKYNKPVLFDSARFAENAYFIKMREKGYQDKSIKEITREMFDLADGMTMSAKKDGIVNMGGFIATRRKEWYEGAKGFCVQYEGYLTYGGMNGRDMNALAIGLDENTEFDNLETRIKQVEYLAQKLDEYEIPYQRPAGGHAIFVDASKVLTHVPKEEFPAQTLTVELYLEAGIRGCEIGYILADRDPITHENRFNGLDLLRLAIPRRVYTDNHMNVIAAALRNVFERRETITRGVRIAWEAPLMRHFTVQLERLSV
In this section we review reported IC50 values for a set of molecules.

[
  {
    "Molecule": "CCC(NC(=O)Nc1cccc(C#N)c1)(C(=O)O)C1CC1 (single isomer, unassigned) [(+) Isomer Compound of Example 33]",
    "IC50 [µM]": 0.6
  },
  {
    "Molecule": "CCC(CC)(NC(=O)Nc1ccsc1)C(=O)O",
    "IC50 [µM]": 34.1
  },
  {
    "Molecule": "CCC(CC)(NC(=O)Nc1ccc(CC#N)cc1)C(=O)O",
    "IC50 [µM]": 4.7
  },
  {
    "Molecule": "CCC(NC(=O)Nc1ccc(F)cc1)(C(=O)O)C1CC1 (stereo not drawn)",
    "IC50 [µM]": 5.2
  },
  {
    "Molecule": "CC[C@@](C)(NC(=O)Nc1cccc(F)c1)C(=O)O",
    "IC50 [µM]": 33.2
  },
  {
    "Molecule": "CCC(CC)(NC(=O)Nc1ccc(N2CCCCC2)cc1)C(=O)O",
    "IC50 [µM]": 1.6
  },
  {
    "Molecule": "N#Cc1cccc(NC(=O)NC(C(=O)O)(C2CC2)C2CC2)c1",
    "IC50 [µM]": 1.8
  },
  {
    "Molecule": "CCC(CC)(NC(=O)Nc1ccccc1)C(=O)O",
    "IC50 [µM]": 20
  },
  {
    "Molecule": "CCC(CC)(NC(=O)Nc1cccc(Cl)c1)C(=O)O",
    "IC50 [µM]": 7.4
  }
]
